Data credit: patent US20240209076A1

target: human IL-6 (human, UniProt P05231 30-212); experiment: SPR Biacore, supernatant, Protein A capture, 37 C
Sequence (P05231 30-212 limits assumed): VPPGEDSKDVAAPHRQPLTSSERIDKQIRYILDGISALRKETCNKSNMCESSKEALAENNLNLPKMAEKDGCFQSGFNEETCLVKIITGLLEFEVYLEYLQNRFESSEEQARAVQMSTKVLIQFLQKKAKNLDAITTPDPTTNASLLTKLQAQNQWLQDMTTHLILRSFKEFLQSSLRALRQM
Observed Property: Kd (nM)

Binder	Test Value
Anti-IL-6 antibody, heavy chain WT / light chain WT (antibody, IgG1, V domains shown, IgG1; variable domains only; also called parent; wild-type) VH: EVQLVESGGGLVQPGGSLRLSCAASGFTFSPFAMSWVRQAPGKGLEWVAKISPGGSWTYYSDTVTGRFTFSLDTSKSTAYLQMNSLRAEDTAVYYCARQLWGYYALDIWGQGTLVTVSS VL: DIQLTQSPSSLSASVGDRVTITCSASISVSYMYWYQQKPGKAPKLLIYDMSNLASGVPSRFSGSGSGTDFTLTISSLQPEDFATYYCMQWSGYPYTFGQGTKVEIK	0.649
Anti-IL-6 antibody, heavy chain S35H, G66D, Q99R / light chain WT (antibody, IgG1, V domains shown, IgG1; variable domains only) VH: EVQLVESGGGLVQPGGSLRLSCAASGFTFSPFAMHWVRQAPGKGLEWVAKISPGGSWTYYSDTVTDRFTFSLDTSKSTAYLQMNSLRAEDTAVYYCARRLWGYYALDIWGQGTLVTVSS VL: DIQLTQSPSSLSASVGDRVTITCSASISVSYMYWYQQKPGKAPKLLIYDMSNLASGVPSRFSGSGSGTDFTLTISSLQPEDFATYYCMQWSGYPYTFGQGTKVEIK	11.4
Anti-IL-6 antibody, heavy chain S35H, G66D, Q99E / light chain WT (antibody, IgG1, V domains shown, IgG1; variable domains only) VH: EVQLVESGGGLVQPGGSLRLSCAASGFTFSPFAMHWVRQAPGKGLEWVAKISPGGSWTYYSDTVTDRFTFSLDTSKSTAYLQMNSLRAEDTAVYYCARELWGYYALDIWGQGTLVTVSS VL: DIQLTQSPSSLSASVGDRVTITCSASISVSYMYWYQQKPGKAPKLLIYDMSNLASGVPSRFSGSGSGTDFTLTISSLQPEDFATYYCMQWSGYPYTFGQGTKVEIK	3.91
